Numbers sourced from patent US20240327535A1.

The reader will find reported Kd values listed item by item below.
Biological target: T1, extracellular domain of human BCMA (human, UniProt Q02223 1-54)
T1 construct: amine-linked to Octet AR2G tips; also called hsBCMA; BCMA (human)
T1 sequence: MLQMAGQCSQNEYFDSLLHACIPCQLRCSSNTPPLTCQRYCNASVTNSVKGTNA
Assay: Octet BLI; Fab 200 nM
Metric name: Kd (nM)

Binder	Metric name	Experimental result
AB200-R1a-Fab_Vk35 (Fab, V domains shown) VH: QVQLVQSGAEVKKPGSSVKVSCKASGGTFSNYWMHWVRQAPGQGLEWMGATYRGHSDTYYNQKFKGRVTITADKSTSTAYMELSSLRSEDTAVYYCARGAIYHGYDVLDNWGQGTLVTVSS VL: DIQMTQSPSSLSASVGDRVTITCSASQDLSNYLNWYQQKPGKAPKLLIYYTSNLHSGVPSRFSGSGSGTDFTLTISSLQPEDFATYYCQQYKKIPWTFGQGTKLEIKR	Kd	7.3
AB200-R1a-Fab_Vk28 (Fab, V domains shown) VH: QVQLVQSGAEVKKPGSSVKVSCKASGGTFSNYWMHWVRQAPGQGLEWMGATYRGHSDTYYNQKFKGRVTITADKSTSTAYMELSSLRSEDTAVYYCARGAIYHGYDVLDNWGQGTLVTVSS VL: DIQMTQSPSSLSASVGDRVTITCSASQDISNFLNWYQQKPGKAPKLLIYYTSNMHSGVPSRFSGSGSGTDFTLTISSLQPEDFATYYCQQYRSLPWTFGQGTKLEIKR	Kd	4.87
AB200-R1a-Fab(hCDR1) (Fab, V domains shown) VH: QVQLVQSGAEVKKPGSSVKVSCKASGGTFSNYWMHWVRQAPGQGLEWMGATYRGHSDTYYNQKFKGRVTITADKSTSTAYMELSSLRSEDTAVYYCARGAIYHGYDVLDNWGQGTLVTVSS VL: DIQMTQSPSSLSASVGDRVTITCRASQSISSYLNWYQQKPGKAPKLLIYYTSNLHSGVPSRFSGSGSGTDFTLTISSLQPEDFATYYCQQYRKLPWTFGQGTKLEIKR	Kd	1.58
AB200-R1a-Fab_Vk31 (Fab, V domains shown) VH: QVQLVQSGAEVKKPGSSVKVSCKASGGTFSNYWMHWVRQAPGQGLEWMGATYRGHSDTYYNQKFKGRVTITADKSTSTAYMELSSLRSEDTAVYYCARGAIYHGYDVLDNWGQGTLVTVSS VL: DIQMTQSPSSLSASVGDRVTITCSASQDISNYLNWYQQKPGKAPKLLIYYTSNIHIGVPSRFSGSGSGTDFTLTISSLQPEDFATYYCQQYRKLPWSFGQGTKLEIKR	Kd	2.36
AB200-R1a-Fab_Vk17 (Fab, V domains shown) VH: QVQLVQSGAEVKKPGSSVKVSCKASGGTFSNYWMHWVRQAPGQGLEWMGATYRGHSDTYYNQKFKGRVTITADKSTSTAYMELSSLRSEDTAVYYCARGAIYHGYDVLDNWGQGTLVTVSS VL: DIQMTQSPSSLSASVGDRVTITCSATQDISNYLNWYQQKPGKAPKLLIYYTTNLHSGVPSRFSGSGSGTDFTLTISSLQPEDFATYYCQQYYKLPWTFGQGTKLEIKR	Kd	4.45
AB200-R1a-Fab_Vk29 (Fab, V domains shown) VH: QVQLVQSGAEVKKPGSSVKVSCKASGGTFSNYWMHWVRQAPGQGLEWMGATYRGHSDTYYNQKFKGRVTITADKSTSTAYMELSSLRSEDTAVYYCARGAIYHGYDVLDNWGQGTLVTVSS VL: DIQMTQSPSSLSASVGDRVTITCSASHDVSNYLNWYQQKPGKAPKLLIYYTSNLHSGVPSRFSGSGSGTDFTLTISSLQPEDFATYYCQQYRRLPWTFGQGTKLEIKR	Kd	1.55
AB200-R1a-Fab_Vk1 (Fab, V domains shown) VH: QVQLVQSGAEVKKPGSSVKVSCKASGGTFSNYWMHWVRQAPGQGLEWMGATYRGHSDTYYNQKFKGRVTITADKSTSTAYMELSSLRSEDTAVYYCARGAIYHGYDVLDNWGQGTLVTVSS VL: DIQMTQSPSSLSASVGDRVTITCRASQDISSYLNWYQQKPGKAPKLLIYYTSNIHSGVPSRFSGSGSGTDFTLTISSLQPEDFATYYCQQYRKLPWTFGQGTKLEIKR	Kd	1.75
AB200-R1a-Fab_Vk2 (Fab, V domains shown) VH: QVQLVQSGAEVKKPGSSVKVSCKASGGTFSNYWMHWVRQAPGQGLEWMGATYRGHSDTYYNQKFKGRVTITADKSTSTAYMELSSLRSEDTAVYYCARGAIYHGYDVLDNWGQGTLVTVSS VL: DIQMTQSPSSLSASVGDRVTITCSASQEVSNYLNWYQQKPGKAPKLLIYYTSNLHSGVPSRFSGSGSGTDFTLTISSLQPEDFATYYCQEYRKLPWTFGQGTKLEIKR	Kd	4.27
AB200-R1a-Fab_Vk5 (Fab, V domains shown) VH: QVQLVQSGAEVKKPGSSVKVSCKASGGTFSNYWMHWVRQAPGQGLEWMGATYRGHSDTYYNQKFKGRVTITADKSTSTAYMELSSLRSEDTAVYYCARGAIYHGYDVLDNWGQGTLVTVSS VL: DIQMTQSPSSLSASVGDRVTITCSASQDISSYLNWYQQKPGKAPKLLIYYTSNLHSGVPSRFSGSGSGTDFTLTISSLQPEDFATYYCQQYRSTPWTFGQGTKLEIKR	Kd	7.83
AB200-R1a-Fab_Vk25 (Fab, V domains shown) VH: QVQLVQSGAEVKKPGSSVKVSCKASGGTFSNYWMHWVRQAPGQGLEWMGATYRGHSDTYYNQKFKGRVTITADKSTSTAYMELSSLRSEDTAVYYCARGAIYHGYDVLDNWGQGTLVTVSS VL: DIQMTQSPSSLSASVGDRVTITCSASQDISNYLNWYQQKPGKAPKLLIYAASNLHSGVPSRFSGSGSGTDFTLTISSLQPEDFATYYCQQYRKIPWTFGQGTKLEIKR	Kd	3.44
